assay: qHTS assay to identify small molecule antagonists of the peroxisome proliferator-activated receptor delta (PPARd) signaling pathway - cell viability counter screen (AID 743213); settings: PPARd-bla HEK293H viability, CellTiter-Glo luminescence, 17 h; series mostly up to 62 µM; note: % is set by controls: 0 for no effect and ±100 for the full control effect; nearly all actives have a fitted effect of over 50% in size
Inconclusive results are not listed. Active and inactive are the calls of the source. Calls come from the whole dose curve; as a rule, active = well fitted cell-killing curve with a large enough effect in the repeat runs; inconclusive = weak or mixed curves; inactive = no such curve, though single readings can be large or run the other way.
PROPERTY NAME: viability change, negative = cytotoxic

Solved entries:
QUERY SMILES: C[Si](C)=O
viability change, negative = cytotoxic: -0.681% [at 6.26 µM] (inactive)
//
QUERY SMILES: COc1nccnc1NS(=O)(=O)c1ccc(N)cc1
viability change, negative = cytotoxic: inactive
//
QUERY SMILES: CC(C)(C)OC(=O)c1ccc(O)cc1
viability change, negative = cytotoxic: inactive
//
QUERY SMILES: CNC(=O)[C@H]1O[C@@H](n2cnc3c(NCc4cc(Cl)ccc4OCc4cc(C)no4)ncnc32)[C@H](O)[C@@H]1N
viability change, negative = cytotoxic: inactive
//
QUERY SMILES: O=C(OCC1(COC(=O)c2cccnc2)CCCC(COC(=O)c2cccnc2)(COC(=O)c2cccnc2)C1O)c1cccnc1
viability change, negative = cytotoxic: inactive

From here, focus on the item given below.
response.value for N[C@@H](COP(=O)(O)O)C(=O)O (field: viability change, negative = cytotoxic) = inactive
